# test-target: T1, AePiwi4 PAZ T41A (Aedes aegypti, UniProt Q171B3 270-380, T310A)
# T1 sequence: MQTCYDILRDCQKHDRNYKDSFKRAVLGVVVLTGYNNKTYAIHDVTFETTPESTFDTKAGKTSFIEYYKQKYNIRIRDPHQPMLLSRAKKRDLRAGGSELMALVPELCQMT
# test-description: SPR; SPR (Biacore T100, CM5-neutravidin, 5'-biotin RNA immobilized): 10 mM HEPES pH 7.4, 150 mM NaCl, 3 mM EDTA, 0.005% P20; steady-state fit; temperature not stated
# protocol-conditions: protein: recombinant; tags: 6xHis (C-terminal); label: 5' biotin; single strand
parameter: Kd (µM)

CGAUAAGUGAUCUUUCAGCACUGCAGAA (ssRNA) [3'nm 28 nt PCLV piRNA] : 5.6
CGAUAAGUGAUCUUUCAGCACUGCAGAA (ssRNA, 3' terminal 2'-O-methyl) [3'm 28 nt PCLV piRNA] : 1.4

Reference source for all entries: paper PMC8657434
